# measurement description: Oral pharmacokinetics in whole blood of WT mice
# Assay type: in vivo
# run conditions: female, WT, mouse, in vivo, po
endpoint name: Tmax (h)

| molecule | endpoint name | units | recorded measurement |
| --- | --- | --- | --- |
| CCN(CC)CCCC(C)Nc1ccnc2cc(Cl)ccc12 (centres unmarked) [Chloroquine, chloroquine] | Tmax | h | 2 |
| COc1cc(NC(C)CCCN)c2ncccc2c1 (centres unmarked) [Primaquine, primaquine] | Tmax | h | 0.6 |

* * *

# measurement description: Oral pharmacokinetics in whole blood of 8HUM mice
# Format: in vivo, mouse
# run conditions: female, mouse, in vivo; 8HUM mice; blood and plasma samples from same animals at identical timepoints; read-out: B/P (blood-to-plasma ratio)

| compound | blood plasma ratio |
| --- | --- |
| COc1cc(NC(C)CCCN)c2ncccc2c1 (centres unmarked) [Primaquine, primaquine] | 1.01 |
| CCN(CC)CCCC(C)Nc1ccnc2cc(Cl)ccc12 (centres unmarked) [Chloroquine, chloroquine] | 3.88 |
